# Assay overview: Partition coefficient, log P of the compound in methanol-water mixture by HPLC analysis
# Format: physicochemical
# Stated conditions: methanol-water mixture; read-out: logP
Observable: logP

{"Record smiles": "Oc1ccc(/C=C/c2ccc(/C=C/c3ccc(O)cc3)c(C(F)(F)F)c2)cc1", "Observable": "logP", "Recorded value": 5.64}
{"Record smiles": "Oc1cc(/C=C/c2ccc(C(F)(F)F)cc2)ccc1/C=C/c1ccc(C(F)(F)F)cc1", "Observable": "logP", "Recorded value": 6.18}
{"Record smiles": "COc1cc(/C=C/c2ccc(O)cc2)c(OC)cc1/C=C/c1ccc(O)cc1", "Observable": "logP", "Recorded value": 5}
{"Record smiles": "COc1cc(/C=C/c2ccc(CO)cc2)ccc1/C=C/c1ccc(CO)cc1", "Observable": "logP", "Recorded value": 4.99}
{"Record smiles": "Oc1ccc(/C=C/c2ccc(/C=C/c3ccc(O)cc3)c(OCC(F)(F)F)c2)cc1", "Observable": "logP", "Recorded value": 5.25}
{"Record smiles": "Oc1ccc(/C=C/c2ccc(/C=C/c3ccc(O)cc3)c(OCCCC(F)(F)F)c2)cc1", "Observable": "logP", "Recorded value": 5.79}

* * *

# Experimental system: Amyloid-beta precursor protein (Homo sapiens, UniProt P05067)
# Sequence (P05067 whole entry): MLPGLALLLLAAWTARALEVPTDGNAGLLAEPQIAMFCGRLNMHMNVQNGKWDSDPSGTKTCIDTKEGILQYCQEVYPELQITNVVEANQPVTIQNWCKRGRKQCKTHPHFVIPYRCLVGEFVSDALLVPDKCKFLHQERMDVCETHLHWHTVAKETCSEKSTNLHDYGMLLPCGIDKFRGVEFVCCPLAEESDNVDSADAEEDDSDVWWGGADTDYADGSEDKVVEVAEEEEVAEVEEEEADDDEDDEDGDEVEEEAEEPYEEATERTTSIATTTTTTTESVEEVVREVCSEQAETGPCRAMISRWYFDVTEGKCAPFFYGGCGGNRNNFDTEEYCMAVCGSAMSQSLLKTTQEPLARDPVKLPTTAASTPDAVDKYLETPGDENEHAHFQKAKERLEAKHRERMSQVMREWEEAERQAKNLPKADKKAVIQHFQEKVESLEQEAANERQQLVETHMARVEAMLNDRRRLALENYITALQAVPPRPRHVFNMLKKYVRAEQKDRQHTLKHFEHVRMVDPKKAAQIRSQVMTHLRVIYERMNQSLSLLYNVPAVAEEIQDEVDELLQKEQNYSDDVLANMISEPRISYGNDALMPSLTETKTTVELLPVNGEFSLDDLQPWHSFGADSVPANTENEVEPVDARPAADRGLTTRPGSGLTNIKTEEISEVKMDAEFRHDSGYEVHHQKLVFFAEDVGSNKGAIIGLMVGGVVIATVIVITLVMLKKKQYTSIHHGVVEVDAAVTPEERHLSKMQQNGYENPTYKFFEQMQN
# Assay overview: Binding affinity to fibrillar amyloid beta (1 to 40) (unknown origin) assessed as fluorescence intensity relative to control
Observable: fold change (FC)

{"Record smiles": "Oc1ccc(/C=C/c2ccc(/C=C/c3ccc(O)cc3)c(OC(C(F)(F)F)(C(F)(F)F)C(F)(F)F)c2)cc1", "Experimental system": "Amyloid-beta precursor protein (Homo sapiens, UniProt P05067)", "fold change (FC)": 17.8}

[I] Oc1ccc(/C=C/c2ccc(/C=C/c3ccc(O)cc3)c(C(F)(F)F)c2)cc1
[II] Oc1cc(/C=C/c2ccc(C(F)(F)F)cc2)ccc1/C=C/c1ccc(C(F)(F)F)cc1
In: // returns I or II , whichever has the lower fold change (FC) Answer = label.
Out: II
(II: 3.6, I: 10.7)

[I] Oc1ccc(/C=C/c2ccc(/C=C/c3ccc(O)cc3)c(OCC(F)(F)F)c2)cc1
[II] COc1cc(/C=C/c2ccc(O)cc2)ccc1/C=C/c1ccc(O)cc1
In: // returns I or II , whichever has the lower fold change (FC) Answer = label.
Out: I
(I: 4.1, II: 9.8)

[I] Oc1ccc(/C=C/c2ccc(/C=C/c3ccc(O)cc3)c(OCCCC(F)(F)F)c2)cc1
[II] Oc1cc(/C=C/c2ccc(OC(F)(F)F)cc2)ccc1/C=C/c1ccc(OC(F)(F)F)cc1
In: // returns I or II , whichever has the lower fold change (FC) Answer = label.
Out: I

* * *

# Experimental system: Amyloid-beta precursor protein (Homo sapiens, UniProt P05067)
# Assay overview: Binding affinity to beta-amyloid plaque in APP/PS1 transgenic mouse brain at 1 uM by fluorescence microscopic analysis
# Format: tissue-based
Activity calls are given as the source filed them. No cut-off for these calls is given here.
Respond using exactly one of the listed classes: Y = active, N = inactive

Past entries and their recorded results:
{"Record smiles": "COc1cc(/C=C/c2ccc(C(F)(F)C(F)F)cc2)ccc1/C=C/c1ccc(C(F)(F)C(F)F)cc1", "Class assignment": "Y"}
{"Record smiles": "COc1cc(/C=C/c2ccc(CO)cc2)ccc1/C=C/c1ccc(CO)cc1", "Class assignment": "Y"}
{"Record smiles": "COc1cc(/C=C/c2ccc(O)cc2)ccc1/C=C/c1ccc(O)cc1", "Class assignment": "Y"}
{"Record smiles": "COc1cc(/C=C/c2ccc(C(F)(F)F)cc2)ccc1/C=C/c1ccc(C(F)(F)F)cc1", "Class assignment": "Y"}
{"Record smiles": "Oc1cc(/C=C/c2ccc(C(F)(F)F)cc2)ccc1/C=C/c1ccc(C(F)(F)F)cc1", "Class assignment": "Y"}
{"Record smiles": "Oc1cc(/C=C/c2ccc(C(F)(F)C(F)F)cc2)ccc1/C=C/c1ccc(C(F)(F)C(F)F)cc1", "Class assignment": "Y"}
{"Record smiles": "Oc1ccc(/C=C/c2ccc(/C=C/c3ccc(O)cc3)c(C(F)(F)F)c2)cc1", "Class assignment": "Y"}
{"Record smiles": "COc1cc(/C=C/c2ccc(OC)c(C(F)(F)F)c2)ccc1/C=C/c1ccc(OC)c(C(F)(F)F)c1", "Class assignment": "Y"}

In: What outcome does the record of this test show for Oc1ccc(/C=C/c2ccc(/C=C/c3ccc(O)cc3)c(OCCCC(F)(F)F)c2)cc1 ?
Out: N

# credit: ChEMBL document CHEMBL3232800
